assay: Solubility of PAG in organic solvents (solvent added until completely dissolved); assay type: physicochemical; conditions: γ-Butyrolactone, 20° C.
Note to self: Solubility (w/v %) GBL under 2 % w/v % means yes (1), ties and anything higher get no (0).

Please state whether Solubility (w/v %) GBL is below 2 % w/v % for CCCCSc1ccc2c3c(cccc13)C(=O)N(OS(=O)(=O)C(F)(F)F)C2=O [Comparative A, reference compound]
yes (1)

Strictly below 2 % w/v % in Solubility (w/v %) GBL? O=C1c2cccc3cccc(c23)C(=O)N1OS(=O)(=O)C(F)(F)F [NIT, N-Hydroxynaphthalimide triflate, reference compound]
no (0)

Does this compound meet the criterion Solubility (w/v %) GBL < 2 % w/v %? COC(C)CCOC(=O)CCSc1ccc2c3c(cccc13)C(=O)N(OS(=O)(=O)C(F)(F)F)C2=O (centres unmarked) [Compound S-11]
no (0)

Bench note: check whether CC(C)Sc1ccc2c3c(cccc13)C(=O)N(OS(=O)(=O)C(F)(F)F)C2=O [Compound S-3] shows Solubility (w/v %) GBL below 2 % w/v %
no (0)

Hello, I'm reviewing records and need to know if Solubility (w/v %) GBL of CC(C)(C)c1ccc(Sc2ccc3c4c(cccc24)C(=O)N(OS(=O)(=O)C(F)(F)F)C3=O)cc1 [Compound S-6] is below 2 % w/v %. Could you check?
yes (1)

API: query returns whether the compound falls strictly under 2 % w/v % in Solubility (w/v %) GBL. Query: O=C1c2cccc3c(C#Cc4ccccc4)ccc(c23)C(=O)N1OS(=O)(=O)C(F)(F)F [Comparative B, reference compound]
yes (1)

Item COC(C)CCOC(=O)CCSc1ccc2c3c(cccc13)C(=O)N(OS(=O)(=O)c1ccc(C)cc1)C2=O (centres unmarked) [Compound S-43] : Solubility (w/v %) GBL beneath 2 % w/v %, strictly?
no (0)

Decide: Solubility (w/v %) GBL of O=C1c2cccc3c(Oc4ccccc4)ccc(c23)C(=O)N1OS(=O)(=O)C(F)(F)F [Compound O-12] strictly below 2 % w/v %?
yes (1)

----------
assay: Solubility of PAG in organic solvents (solvent added until completely dissolved); type: physicochemical; conditions: Propylene glycol monomethyl ether acetate; Table 7
Solubility (w/v %) in PGMEA strictly under 2 % w/v % means class 1; at 2 % w/v % or over means class 0.

A record lists O=C1c2cccc3cccc(c23)C(=O)N1OS(=O)(=O)C(F)(F)F [NIT, N-Hydroxynaphthalimide triflate, reference compound] . Is its Solubility (w/v %) in PGMEA below 2 % w/v %?
class 1

Is the reported Solubility (w/v %) in PGMEA for O=C1c2cccc3c(C#Cc4ccccc4)ccc(c23)C(=O)N1OS(=O)(=O)C(F)(F)F [Comparative B, reference compound] strictly below 2 % w/v %?
class 1

# check: Solubility (w/v %) in PGMEA < 2 % w/v % for COC(C)CCOC(=O)CCSc1ccc2c3c(cccc13)C(=O)N(OS(=O)(=O)C(F)(F)F)C2=O (centres unmarked)
class 0

Hi there! Is Solubility (w/v %) in PGMEA for CC(C)Sc1ccc2c3c(cccc13)C(=O)N(OS(=O)(=O)C(F)(F)F)C2=O below 2 % w/v %, do you know?
class 0

Find out if reported Solubility (w/v %) in PGMEA for CCCCSc1ccc2c3c(cccc13)C(=O)N(OS(=O)(=O)C(F)(F)F)C2=O [Comparative A, reference compound] is less than 2 % w/v %
class 1

----------
test: Photoreactivity: photolysis of PAGs in acetonitrile at 365 nm, photoreaction constant from UV-Vis absorbance; type: physicochemical; conditions: acetonitrile, air, room temperature, 3×10^−5 M; NIT normalized to one
Respond with Met for Relative Photoreactivity (normalized photoreaction constant) at 365 nm values of 10 and above, Not met for values below.

Test whether the molecule O=C1c2cccc3c(C#Cc4ccccc4)ccc(c23)C(=O)N1OS(=O)(=O)C(F)(F)F [Comparative B, reference compound] records Relative Photoreactivity (normalized photoreaction constant) at 365 nm of 10 or higher.
Not met

Does the reported Relative Photoreactivity (normalized photoreaction constant) at 365 nm for COC(C)CCOC(=O)CCSc1ccc2c3c(cccc13)C(=O)N(OS(=O)(=O)C(F)(F)F)C2=O (centres unmarked) [Compound S-11] fall at or above the 10 mark?
Met

Is Relative Photoreactivity (normalized photoreaction constant) at 365 nm for CC(C)Sc1ccc2c3c(cccc13)C(=O)N(OS(=O)(=O)C(F)(F)F)C2=O [Compound S-3] at or above 10?
Met

Hi, just wondering whether CCCCSc1ccc2c3c(cccc13)C(=O)N(OS(=O)(=O)C(F)(F)F)C2=O [Comparative A, reference compound] shows Relative Photoreactivity (normalized photoreaction constant) at 365 nm of 10 or higher.
Met

Identify whether the reported Relative Photoreactivity (normalized photoreaction constant) at 365 nm of the following molecule is 10 or greater: O=C1c2cccc3cccc(c23)C(=O)N1OS(=O)(=O)C(F)(F)F [NIT, N-Hydroxynaphthalimide triflate, reference compound]
Not met

----------
test: Photoreactivity: photolysis of PAGs in acetonitrile at 365 nm, photoreaction constant from UV-Vis absorbance; assay type: physicochemical; details: product of solubility in PGMEA and relative photoreactivity at 365 nm
Record yes (1) whenever Solubility x relative Photoreactivity is at 2% or higher; record no (0) when lower.

Entry O=C1c2cccc3cccc(c23)C(=O)N1OS(=O)(=O)C(F)(F)F [NIT, N-Hydroxynaphthalimide triflate, reference compound] : is its Solubility x relative Photoreactivity no less than 2%?
no (0)

// inclusive: Solubility x relative Photoreactivity at least 2%? input: O=C1c2cccc3c(C#Cc4ccccc4)ccc(c23)C(=O)N1OS(=O)(=O)C(F)(F)F [Comparative B, reference compound]
yes (1)

Given the entry CC(C)Sc1ccc2c3c(cccc13)C(=O)N(OS(=O)(=O)C(F)(F)F)C2=O , answer whether its Solubility x relative Photoreactivity meets or surpasses 2%.
yes (1)

Dear colleague, could you confirm whether COC(C)CCOC(=O)CCSc1ccc2c3c(cccc13)C(=O)N(OS(=O)(=O)C(F)(F)F)C2=O (centres unmarked) has Solubility x relative Photoreactivity at or above 2%?
yes (1)

Please tell me: is the compound CCCCSc1ccc2c3c(cccc13)C(=O)N(OS(=O)(=O)C(F)(F)F)C2=O [Comparative A, reference compound] at or over 2% in terms of Solubility x relative Photoreactivity?
yes (1)

----------
experiment: Solubility of PAG in organic solvents (solvent added until completely dissolved); type: physicochemical; conditions: Cyclohexanone, 20° C.
Outcome measure: Solubility (w/v %) Cyclohexanone (% w/v %)
Respond with the bare value in % w/v %.

// Input: O=C1c2cccc3c(C#Cc4ccccc4)ccc(c23)C(=O)N1OS(=O)(=O)C(F)(F)F [Comparative B, reference compound] . Output its Solubility (w/v %) Cyclohexanone only.
3.5

Give the measured Solubility (w/v %) Cyclohexanone for COC(C)CCOC(=O)CCSc1ccc2c3c(cccc13)C(=O)N(OS(=O)(=O)C(F)(F)F)C2=O (centres unmarked) [Compound S-11]
86.4

Give the value of Solubility (w/v %) Cyclohexanone reported for the following: CC(C)Sc1ccc2c3c(cccc13)C(=O)N(OS(=O)(=O)C(F)(F)F)C2=O [Compound S-3]
16.6

Identify Solubility (w/v %) Cyclohexanone associated with the compound O=C1c2cccc3cccc(c23)C(=O)N1OS(=O)(=O)C(F)(F)F [NIT, N-Hydroxynaphthalimide triflate, reference compound]
5.9

# return recorded Solubility (w/v %) Cyclohexanone for entry CCCCSc1ccc2c3c(cccc13)C(=O)N(OS(=O)(=O)C(F)(F)F)C2=O [Comparative A, reference compound]
4.1

// fetch Solubility (w/v %) Cyclohexanone given entry CC(C)(C)c1ccc(Sc2ccc3c4c(cccc24)C(=O)N(OS(=O)(=O)C(F)(F)F)C3=O)cc1 [Compound S-6]
5.3

Indicate the recorded Solubility (w/v %) Cyclohexanone value for this compound: O=C1c2cccc3c(Oc4ccccc4)ccc(c23)C(=O)N1OS(=O)(=O)C(F)(F)F [Compound O-12]
9.0

Given the compound COC(C)CCOC(=O)CCSc1ccc2c3c(cccc13)C(=O)N(OS(=O)(=O)c1ccc(C)cc1)C2=O (centres unmarked) [Compound S-43] , write its reported Solubility (w/v %) Cyclohexanone.
37.5

----------
Consider the following compounds; for each one, report its Solubility (w/v %) PGMEA.
assay: Solubility of PAG in organic solvents (solvent added until completely dissolved); type: physicochemical; settings: Propylene glycol monomethyl ether acetate, 20° C.; Table 8
State the answer as a number, implicitly in % w/v %.

Check the records and state Solubility (w/v %) PGMEA for CC(C)(C)c1ccc(Sc2ccc3c4c(cccc24)C(=O)N(OS(=O)(=O)C(F)(F)F)C3=O)cc1 [Compound S-6]
1.9

Please give measured Solubility (w/v %) PGMEA of the following entry: O=C1c2cccc3c(C#Cc4ccccc4)ccc(c23)C(=O)N1OS(=O)(=O)C(F)(F)F [Comparative B, reference compound]
1.0

Complete the entry with Solubility (w/v %) PGMEA for O=C1c2cccc3c(Oc4ccccc4)ccc(c23)C(=O)N1OS(=O)(=O)C(F)(F)F [Compound O-12]
2.0

For the compound O=C1c2cccc3cccc(c23)C(=O)N1OS(=O)(=O)C(F)(F)F [NIT, N-Hydroxynaphthalimide triflate, reference compound] , report Solubility (w/v %) PGMEA.
1.7

Recall and state the measured Solubility (w/v %) PGMEA for CCCCSc1ccc2c3c(cccc13)C(=O)N(OS(=O)(=O)C(F)(F)F)C2=O [Comparative A, reference compound] .
1.1

Give the reported value of Solubility (w/v %) PGMEA for this record: COC(C)CCOC(=O)CCSc1ccc2c3c(cccc13)C(=O)N(OS(=O)(=O)c1ccc(C)cc1)C2=O (centres unmarked) [Compound S-43]
11.7

State its Solubility (w/v %) PGMEA for this compound: CC(C)Sc1ccc2c3c(cccc13)C(=O)N(OS(=O)(=O)C(F)(F)F)C2=O [Compound S-3]
7.2

Complete the entry with Solubility (w/v %) PGMEA for COC(C)CCOC(=O)CCSc1ccc2c3c(cccc13)C(=O)N(OS(=O)(=O)C(F)(F)F)C2=O (centres unmarked) [Compound S-11]
53.9
